# assayedSystem: Cytochrome P450 2D6 (Homo sapiens) (UniProt P10635)
# Sequence (P10635 whole entry, looked up): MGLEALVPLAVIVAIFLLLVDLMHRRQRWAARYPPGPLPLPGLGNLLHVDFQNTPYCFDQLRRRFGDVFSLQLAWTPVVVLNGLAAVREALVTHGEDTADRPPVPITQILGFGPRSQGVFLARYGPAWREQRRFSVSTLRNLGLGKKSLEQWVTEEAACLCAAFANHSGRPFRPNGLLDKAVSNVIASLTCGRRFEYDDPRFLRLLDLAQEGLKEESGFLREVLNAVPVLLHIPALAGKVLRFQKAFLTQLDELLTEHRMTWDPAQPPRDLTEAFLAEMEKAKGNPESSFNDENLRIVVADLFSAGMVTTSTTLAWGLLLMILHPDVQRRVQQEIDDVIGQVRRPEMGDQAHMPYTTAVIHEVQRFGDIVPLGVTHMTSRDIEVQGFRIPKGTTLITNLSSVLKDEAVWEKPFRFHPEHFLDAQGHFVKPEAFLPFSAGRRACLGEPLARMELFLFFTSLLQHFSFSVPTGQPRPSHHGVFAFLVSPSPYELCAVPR
# measurementDescription: Cytochrome P450 family 2 subfamily D member 6 (CYP2D6) small molecule antagonists: luciferase biochemical (cell-free) qHTS assay (AID 1645840); further: nearly all actives have a fitted effect of over 55% in size; further: potency means the concentration at half of the fitted maximal effect
# conditionSet: P450-Glo CYP2D6 enzyme, luciferin luminescence, 1 h; series mostly up to 57.4 µM
Results filed as inconclusive are left out. Activity calls are given as the source filed them. The call rests on the fitted dose curve; in most records, active means well fitted inhibition curve with a large enough effect in the repeat runs; inconclusive means weak or mixed curves; inactive means flat fitted curve, though single readings scatter.
metric: Potency

Please review the following examples before continuing.
molecule	assayedSystem	result
CC(C)COc1ccc(CNC(=O)N(Cc2ccc(F)cc2)C2CCN(C)CC2)cc1	Cytochrome P450 2D6 (Homo sapiens) (UniProt P10635)	5.35 µM (active)
CCCCc1nc(C)c(CC(=S)N(C)C)c(=O)n1Cc1ccc(-c2ccccc2-c2nn[nH]n2)cc1	Cytochrome P450 2D6 (Homo sapiens) (UniProt P10635)	inactive
Cc1ccc(-c2nnc(Nc3ccc(Br)cc3)c3ccccc23)cc1S(=O)(=O)NCc1nc2ccccc2[nH]1	Cytochrome P450 2D6 (Homo sapiens) (UniProt P10635)	3.38 µM (active)
CC(C)c1ccc(NC(=O)C(c2ccccc2)N(C)C(=O)Cc2c[nH]c3ccccc23)cc1 (stereo not given)	Cytochrome P450 2D6 (Homo sapiens) (UniProt P10635)	10.7 µM (active)
COc1cc2nc(-c3cc(F)ccc3O)nc(N[C@@H]3CNC[C@H]3C(C)(C)O)c2cc1OC	Cytochrome P450 2D6 (Homo sapiens) (UniProt P10635)	19 µM (active)
C=CC(=O)N1CCN(C(=O)c2cc(-c3cc(Cl)ccc3Cl)c(Cl)cc2OC)CC1	Cytochrome P450 2D6 (Homo sapiens) (UniProt P10635)	19 µM (active)
O=C1CC[C@H](C(=O)O)N1	Cytochrome P450 2D6 (Homo sapiens) (UniProt P10635)	inactive
CCCc1c(C(C)C)nc(C(C)C)c([C@@H](C)O)c1-c1ccc(F)cc1O	Cytochrome P450 2D6 (Homo sapiens) (UniProt P10635)	2.39 µM (active)
OC(CNCCc1c[nH]c2ccccc12)Cn1c2ccccc2c2ccccc21 (stereo not given)	Cytochrome P450 2D6 (Homo sapiens) (UniProt P10635)	0.268 µM (active)

Consider the additional molecule presented here.
Lab note: measured Potency of COc1cc2ncnc(Nc3ccc(Oc4ccccc4)cc3)c2cc1OC was 19 µM (active)

Data provenance: PubChem BioAssay (NCATS)
